Target: Gag-Pol polyprotein (Human immunodeficiency virus type 1 group M subtype B (isolate HXB2))
Test: RNase H inhibition, HIV 1 Gag Pol polyprotein, FRET biochemical assay, screening (AID 372)
Conditions: HIV-1 RT RNase H, FRET RNA/DNA substrate fluorescence; at 10 µM; stronger effect = higher value
About 770 (0.77%) of roughly 100,000 compounds were called active. The sample as a whole holds a higher share of actives than the screen did.
Hi all, reminder that labels come from inhibition, split as low value (below 5%), medium value (5% to below 10%), high value (10% or more)

[[record]]
molecule = "COc1ccc2oc(=O)c(C(=O)Nc3cccc([N+](=O)[O-])c3)cc2c1"
discrete_label = "high value"

[[record]]
molecule = "COC(=O)Cn1cc(/C=C2\\C(=O)NC(=S)N(c3cccc(Cl)c3)C2=O)c2ccccc21"
discrete_label = "low value"

[[record]]
molecule = "CC(=O)Nc1ccc(NC(=S)NC(=O)c2cccc(Br)c2)cc1"
discrete_label = "low value"

[[record]]
molecule = "COc1ccc(C2C(C#N)=C(N)OC3=C2C(=O)CC(c2ccccc2)C3)cc1C (stereo unspecified)"
discrete_label = "medium value"

[[record]]
molecule = "Clc1ccccc1OCCCn1ccnc1"
discrete_label = "low value"

[[record]]
molecule = "CCOc1cccc(N2C(=O)NC(=O)/C(=C\\c3cn(CC(=O)OC)c4ccccc34)C2=O)c1"
discrete_label = "low value"

[[record]]
molecule = "Cc1ccccc1N1C(=O)/C(=C\\c2cn(CC(=O)Nc3ccccc3)c3ccccc23)C(=O)NC1=S"
discrete_label = "high value"

[[record]]
molecule = "CSCCC(NC(=O)c1ccccc1)C(=O)OCC(=O)Nc1cc(C)on1 (stereo unspecified)"
discrete_label = "high value"

[[record]]
molecule = "Cc1ccccc1N1C(=O)c2cccnc2C1=O"
discrete_label = "high value"

[[record]]
molecule = "NS(=O)(=O)c1ccc(CNC2CC(=O)N(CCc3ccccc3)C2=O)cc1 (stereo unspecified)"
discrete_label = "medium value"

[[record]]
molecule = "Cc1ccc(N2C(=O)NC(=O)/C(=C/c3cn(CC(=O)Nc4ccccc4)c4ccccc34)C2=O)cc1"
discrete_label = "high value"

[[record]]
molecule = "CC1=C(C#N)C(c2cccc(F)c2)C2=C(CC(c3ccccc3)CC2=O)N1 (stereo unspecified)"
discrete_label = "high value"

[[record]]
molecule = "COc1ccc(N2C(=O)/C(=C/c3cn(Cc4ccccc4)c4ccccc34)C(=O)NC2=S)cc1"
discrete_label = "high value"

[[record]]
molecule = "COc1ccc(-c2nnc(N)s2)cc1"
discrete_label = "medium value"

[[record]]
molecule = "COc1ccc2oc(=O)c(C(=O)Nc3ccccc3)cc2c1"
discrete_label = "medium value"

[[record]]
molecule = "O=C(Cn1cc(/C=C2/C(=O)NC(=S)N(c3ccccc3)C2=O)c2ccccc21)Nc1ccccc1"
discrete_label = "high value"

[[record]]
molecule = "CC(C)Cc1ccc(-c2csc(/C(C#N)=C/Nc3ccccc3)n2)cc1"
discrete_label = "low value"

